Where do the numbers come from? From ChEMBL document CHEMBL1121685.

Tested on: Mus musculus
test.details: Antitumor activity against P-388 murine leukemia cells in CDF1 female mice after intraperitoneal administration at the specified optimal dose of 12.8 mg/kg
Format: functional
Listed compounds paired with reported T/C
result.type: T/C (%)

• C#CCNC1=C(C)C(=O)C2=C(C1=O)[C@H](COC(N)=O)C1(OC)[C@@H]3N[C@@H]3CN21 (some centres not stated) = 358
• COC(=O)CNC1=C(C)C(=O)C2=C(C1=O)[C@H](COC(N)=O)C1(OC)[C@@H]3N[C@@H]3CN21 (some centres not stated) = 300
• COC12[C@@H]3N[C@@H]3CN1C1=C(C(=O)C(NCc3cccnc3)=C(C)C1=O)[C@@H]2COC(N)=O (some centres not stated) = 167
• COC12[C@@H]3N[C@@H]3CN1C1=C(C(=O)C(NCc3cccs3)=C(C)C1=O)[C@@H]2COC(N)=O (some centres not stated) = 167
• COC12[C@@H]3N[C@@H]3CN1C1=C(C(=O)C(NCc3ccco3)=C(C)C1=O)[C@@H]2COC(N)=O (some centres not stated) = 276
• CO[C@@]12[C@H](COC(N)=O)C3=C(C(=O)C(C)=C(N)C3=O)N1C[C@H]1[C@@H]2N1C (some centres not stated) = 225
• C#CCN(C)C1=C(C)C(=O)C2=C(C1=O)[C@H](COC(N)=O)C1(OC)[C@@H]3N[C@@H]3CN21 (some centres not stated) = 210
• C=CCNC1=C(C)C(=O)C2=C(C1=O)[C@H](COC(N)=O)C1(OC)[C@H]3[C@@H](CN21)N3C (some centres not stated) = 189
• COC12[C@@H]3N[C@@H]3CN1C1=C(C(=O)C(NCc3ccccc3)=C(C)C1=O)[C@@H]2COC(N)=O (some centres not stated) = 188
• COC12[C@@H](COC(N)=O)C3=C(C(=O)C(C)=C(NC4CC4)C3=O)N1C[C@@H]1[C@H]2N1C (some centres not stated) = 167
• COC12[C@@H]3N[C@@H]3CN1C1=C(C(=O)C(NCCCCl)=C(C)C1=O)[C@@H]2COC(N)=O (some centres not stated) = 140
• COC12[C@@H]3N[C@@H]3CN1C1=C(C(=O)C(NCCCl)=C(C)C1=O)[C@@H]2COC(N)=O (some centres not stated) = 190
